MEASURED_TARGET: collagen (coated on 96-well plates, Example 2)
EXPERIMENTAL_DETAILS: collagen-coated 96-well plate, biotin-labelled bioconjugate, streptavidin-HRP/TMB, absorbance at 450 nm (Example 2)
Ends that are not written are not given here.
Items are presented alongside their recorded EC50 (read off the curve).

BINDER	EC50 (read off the curve) (µg/mL)
GQLYKSILYRRGSGSGS (not fully specified; C-terminal hydrazide (-NHNH-) bonded to a carboxyl of heparin; part of the peptides biotin-labelled) [Compound 9 (heparin bioconjugate of …-NHNH2)]	50
Compound 19 (heparin bioconjugate of (…)2-KRRGSG-NHNH2) (not fully specified (C-terminus); printed as (RVMHGLHLGDDEGSG)2-KRRGS; also: two copies of chain 1 bonded to the N-terminal branching lysine of chain 2, about 3 branched peptides per heparin (16 kDa)) peptide 1: RVMHGLHLGDDEGSG peptide 2: KRRGSG	100
GQLYKSILYGSGRRRGSG (not fully specified; C-terminal hydrazide (-NHNH-) bonded to a carboxyl of heparin; part of the peptides biotin-labelled) [Compound 12 (heparin bioconjugate of …-NHNH2)]	30
